meta.source: patent US8809529B2

Assign Stability (pH 8) (T90 in hrs) to each entry below.
Give just the number in hrs; leave the unit off.

Give the measured Stability (pH 8) (T90 in hrs) for O=c1c(Cc2ccco2)nc2c(Cc3ccccc3)[nH]c(-c3ccccc3)cn1-2 [PBI-3939]
4.1

For Oc1ccc(Cc2nc3c(Cc4ccccc4)nc(-c4ccc(O)cc4)cn3c2O)cc1 [Native coelenterazine, coelenterazine, reference compound] , write its Stability (pH 8) (T90 in hrs).
1.7

Please report Stability (pH 8) (T90 in hrs) for the following molecule: Cc1[nH]c(-c2ccccc2)cn2c(=O)c(Cc3ccc(O)cc3)nc1-2 [PBI-3896]
2.8

Please look at this molecule and report its Stability (pH 8) (T90 in hrs): O=c1c(Cc2cccs2)nc2c(Cc3ccccc3)[nH]c(-c3ccccc3)cn1-2 [PBI-3889]
2.9
